These entries and their values trace back to ChEMBL document CHEMBL3217684.

Tested on: Caco-2
test: Cytotoxicity against human Caco2 cells assessed as inhibition of cell proliferation after 48 hrs by sulforhodamine-B assay
Type: functional, cell-based
condition-label: Caco-2, 48 h
readout: IC50

# example entries with known answers
molecule	recorded-measurement
CCO[C@H]1C[C@@H](c2coc3ccc(Br)cc3c2=O)N(c2ccccc2)O1 (relative stereo)	> 60 µM
CCO[C@H]1C[C@@H](c2coc3ccc(C)cc3c2=O)N(c2ccccc2)O1 (relative stereo)	31 µM
O=c1c([C@@H]2C[C@H](c3ccccc3)ON2c2ccccc2)coc2ccc(Br)cc12 (relative stereo)	> 60 µM
O=C1[C@H]2[C@H](ON(c3ccccc3)[C@@H]2c2coc3ccc(F)cc3c2=O)C(=O)N1c1ccccc1 (relative stereo)	> 60 µM
COC(=O)[C@H]1C[C@@H](c2coc3ccc(Cl)cc3c2=O)N(c2ccccc2)O1 (relative stereo)	> 60 µM

Turning to the following molecule.
Task: Output IC50 of O=C1[C@H]2[C@H](ON(c3ccccc3)[C@@H]2c2coc3ccc(Br)cc3c2=O)C(=O)N1c1ccccc1 (relative stereo)
Result: 20.3 µM

###

IC50: recorded values
System: Caco-2
test: Cytotoxicity against human Caco2 cells assessed as inhibition of cell proliferation after 48 hrs by sulforhodamine-B assay
Assay type: functional, cell-based
condition-label: Caco-2, 48 h

# example entries with known answers
molecule	recorded-measurement
O=c1c([C@@H]2C[C@H](c3ccncc3)ON2c2ccccc2)coc2ccccc12 (relative stereo)	37 µM
O=c1c([C@@H]2C[C@H](c3ccccc3)ON2c2ccccc2)coc2ccccc12 (relative stereo)	> 60 µM
COC(=O)[C@@]1(C)C[C@@H](c2coc3ccc(F)cc3c2=O)N(c2ccccc2)O1 (relative stereo)	29.5 µM

Task: Output IC50 of Cc1ccc2occ([C@@H]3C[C@H](OCC(C)C)ON3c3ccccc3)c(=O)c2c1 (relative stereo)
Result: > 60 µM

Task: Output IC50 of N#C[C@H]1C[C@@H](c2coc3ccc(Cl)cc3c2=O)N(c2ccccc2)O1 (relative stereo)
Result: 39 µM

Task: Output IC50 of COC(=O)[C@H]1C[C@@H](c2coc3ccccc3c2=O)N(c2ccccc2)O1 (relative stereo)
Result: > 60 µM

Task: Output IC50 of NC(=O)[C@H]1C[C@@H](c2coc3ccccc3c2=O)N(c2ccccc2)O1 (relative stereo)
Result: > 60 µM

Task: Output IC50 of Cc1ccc2occ([C@@H]3C[C@H](c4ccccc4)ON3c3ccccc3)c(=O)c2c1 (relative stereo)
Result: 31.7 µM

Task: Output IC50 of CCO[C@H]1C[C@@H](c2coc3cc(Cl)c(Cl)cc3c2=O)N(c2ccccc2)O1 (relative stereo)
Result: > 60 µM

Task: Output IC50 of COC(=O)[C@@]1(C)C[C@@H](c2coc3ccc(Br)cc3c2=O)N(c2ccccc2)O1 (relative stereo)
Result: > 60 µM

Task: Output IC50 of CCO[C@H]1C[C@@H](c2coc3ccc(F)cc3c2=O)N(c2ccccc2)O1 (relative stereo)
Result: > 60 µM

Task: Output IC50 of CCO[C@H]1C[C@@H](c2coc3ccccc3c2=O)N(c2ccccc2)O1 (relative stereo)
Result: > 60 µM

Task: Output IC50 of `Cc1ccc2occ([C@@H]3[C@H]4C(=O)N(c5ccccc5)C(=O)[C@H]4ON3c3ccccc3)c(=O)c2c1`
Result: > 60 µM

Task: Output IC50 of O=c1c([C@@H]2C[C@H](c3ccccc3)ON2c2ccccc2)coc2ccc(F)cc12 (relative stereo)
Result: 60 µM

Task: Output IC50 of COC(=O)[C@@]1(C)C[C@@H](c2coc3ccc(C)cc3c2=O)N(c2ccccc2)O1 (relative stereo)
Result: 19.7 µM

Task: Output IC50 of O=c1c([C@@H]2C[C@H](c3ccccc3)ON2c2ccccc2)coc2cc(Cl)c(Cl)cc12 (relative stereo)
Result: 23.5 µM
